Source listed as patent US9371374.

- measured_target: HCV Core 134-171-TT peptide (ALRZ-9 peptide) (HCV-1)
- method_summary: SPR, captured mAb;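 note: Anti-HCV Core mAbs from hybridoma supernatants held on a rabbit anti-mouse IgG CM5 surface, peptide flowed over 3 min then 4 min dissociation, duplicate concentrations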
assay_metric: koff (s⁻¹)
Numeric only. Scale: s⁻¹

Returns the measured koff for the input binder. Input: HCV 208A-877 (antibody, V domains shown) VH: QLQQSGPELVKPGASVKISCKTSGYTFTENAMHWVKQSRGKSLEWIGGVNPNNGDTVYTQKFKGKATLTVAKSSSTAYMELRTMTCEESTVYYCASREPDFFDYWGQGSSVTVSS VL: QIVLTQSPAIMSVSPGEKVSMTCSASSSVTYMHWYQQKSGTSPKRWIYDTSELASGVPARFSGSGSGTTYSLTISSMEAEDAATYYCQQWSNKPLTFGAGTKLELKR
0.0024

For the binder HCV 208B-1094 (antibody, V domains shown) VH: EVQLQQSGPELVKPGASVKISCKTSGYTFTEYAMHWMKQSHGKSLEWIGGINPTNGDTIYNQRFKDKAKLTVDRSSSTAYMELRSLTSDDSALFYCARRELDYFASWGQGTTLTVSS VL: DIVLTQSPASLIVSLGQTATISCRASQSLSTSRFSYVHWIQQKPGQPPKLLIKYASNLESGVPVRFSGSGSGTDFTLNIHPVEEEDTATYFCQHSWEFPFTFGSGTKLKIKR , what koff is on record?
0.00025

Which measured koff value corresponds to HCV 208A-638 (antibody, V domains shown) VH: QGQLQQPGAEFVKPGASLKLSCRASGYTFTSYWIHWVKQRPGQGLEWIGEVDPSDSYINQNEKFRGKATLTVDKSSSTAYMQLGSLTSEDSAVYYCARHYYGVLDSWGQGTALTVSS VL: QIVLTQSPTIMSASLGERVTMTCTASSSVSSSYLHWFQQKPGSSPKLWIYSTSNLASGVPPRFSGSGSGTSYSLSISSVEAEDVATYYCLQFHRSPWTFGGGAKLEIKR ?
0.00053
